Target: T1, macaca fascicularis (mf) PRLR.mmh (soluble monomeric monkey PRLR) (Macaca fascicularis)
T1 construct: called soluble monomeric PRLR protein
T1 chain: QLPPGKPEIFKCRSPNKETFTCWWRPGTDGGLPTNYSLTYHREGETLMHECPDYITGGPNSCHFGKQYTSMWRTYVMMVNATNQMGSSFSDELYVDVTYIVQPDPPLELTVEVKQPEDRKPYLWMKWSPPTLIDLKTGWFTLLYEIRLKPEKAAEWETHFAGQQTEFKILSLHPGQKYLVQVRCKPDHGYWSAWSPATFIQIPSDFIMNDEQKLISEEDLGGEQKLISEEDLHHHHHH
Test: SPR Biacore, 25 C, mAb capture
Experimental: Measurements were conducted on a T200 Biacore instrument. Kinetic association (kₐ) and dissociation (kd) rate constants were determined by processing and fitting the data to a 1:1 binding model using Scrubber 2.0 curve fitting software.
ENDPOINT: Kd (nM)
Write the number in nM without appending the unit.

**Q:** Find the recorded Kd belonging to H1H6765P (antibody, human IgG1, V domains shown, Human IgG1 Fc (H1H)) VH: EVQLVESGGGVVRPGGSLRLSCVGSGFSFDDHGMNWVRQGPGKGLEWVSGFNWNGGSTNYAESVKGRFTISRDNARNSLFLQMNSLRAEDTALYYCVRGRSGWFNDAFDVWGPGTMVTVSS VL: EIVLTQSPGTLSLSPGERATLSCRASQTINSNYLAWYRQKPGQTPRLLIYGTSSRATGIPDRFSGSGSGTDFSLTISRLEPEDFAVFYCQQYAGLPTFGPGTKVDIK and report it.
**A:** 0.254

**Q:** Queued: H1H6785P (antibody, human IgG1, V domains shown, Human IgG1 Fc (H1H)) VH: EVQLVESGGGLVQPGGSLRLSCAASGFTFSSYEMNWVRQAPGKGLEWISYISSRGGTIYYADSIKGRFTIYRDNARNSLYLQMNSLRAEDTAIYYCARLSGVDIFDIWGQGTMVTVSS VL: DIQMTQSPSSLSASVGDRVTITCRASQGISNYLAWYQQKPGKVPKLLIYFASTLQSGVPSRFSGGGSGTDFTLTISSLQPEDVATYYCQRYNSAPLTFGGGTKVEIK
**A:** 0.738

**Q:** Queued: H1H6790P (antibody, human IgG1, V domains shown, Human IgG1 Fc (H1H)) VH: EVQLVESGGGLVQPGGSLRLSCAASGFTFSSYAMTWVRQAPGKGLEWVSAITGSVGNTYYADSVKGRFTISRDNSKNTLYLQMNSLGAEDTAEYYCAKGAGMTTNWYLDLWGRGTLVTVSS VL: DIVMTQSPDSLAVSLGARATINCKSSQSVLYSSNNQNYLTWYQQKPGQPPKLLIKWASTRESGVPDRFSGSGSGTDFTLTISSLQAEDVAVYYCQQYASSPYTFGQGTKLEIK
**A:** 2.04

**Q:** Queued: H1H6803P (antibody, human IgG1, V domains shown, Human IgG1 Fc (H1H)) VH: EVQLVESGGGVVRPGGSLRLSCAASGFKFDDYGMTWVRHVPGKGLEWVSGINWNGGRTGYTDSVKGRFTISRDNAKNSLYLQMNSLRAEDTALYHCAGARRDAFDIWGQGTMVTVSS VL: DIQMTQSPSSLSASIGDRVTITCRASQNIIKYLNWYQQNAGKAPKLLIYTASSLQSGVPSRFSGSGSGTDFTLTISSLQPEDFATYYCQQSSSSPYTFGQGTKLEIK
**A:** 3.37

**Q:** Queued: H1H6958N2 (antibody, human IgG1, V domains shown, Tested with human IgG1 Fc (H1H); also called H2M6958N2) VH: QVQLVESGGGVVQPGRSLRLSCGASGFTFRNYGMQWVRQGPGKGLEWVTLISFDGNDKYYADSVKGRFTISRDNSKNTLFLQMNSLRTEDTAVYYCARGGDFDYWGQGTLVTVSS VL: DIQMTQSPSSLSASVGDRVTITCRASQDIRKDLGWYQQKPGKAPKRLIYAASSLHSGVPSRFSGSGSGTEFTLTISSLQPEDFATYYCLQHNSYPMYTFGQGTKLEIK
**A:** 1.44

**Q:** Queued: H1H6960N (antibody, human IgG1, V domains shown, Tested with human IgG1 Fc (H1H); also called H2M6960N) VH: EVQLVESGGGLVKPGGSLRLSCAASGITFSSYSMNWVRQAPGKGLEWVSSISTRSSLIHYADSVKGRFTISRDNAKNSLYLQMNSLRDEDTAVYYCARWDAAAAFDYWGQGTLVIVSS VL: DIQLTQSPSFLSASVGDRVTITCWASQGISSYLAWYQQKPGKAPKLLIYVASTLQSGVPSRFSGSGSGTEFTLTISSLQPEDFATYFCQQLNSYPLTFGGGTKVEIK
**A:** 6.2

**Q:** Queued: H1H6782P (antibody, human IgG1, V domains shown, Human IgG1 Fc (H1H)) VH: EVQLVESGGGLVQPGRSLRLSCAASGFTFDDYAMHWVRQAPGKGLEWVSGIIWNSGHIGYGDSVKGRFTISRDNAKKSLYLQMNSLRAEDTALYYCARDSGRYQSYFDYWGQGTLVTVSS VL: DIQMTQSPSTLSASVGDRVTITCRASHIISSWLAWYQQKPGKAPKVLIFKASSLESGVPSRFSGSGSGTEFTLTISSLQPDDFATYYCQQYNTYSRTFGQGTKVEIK
**A:** 1.05
